- System: J774
- MEASUREMENT DESCRIPTION: Cytotoxicity in mouse J774 cells at 100 ug/mL after 24 hrs
- Type: cell-based
- ASSAY CONTEXT: j774, 24 h

{"columns": ["STRUCTURE AS SMILES", "Activity"],
 "data": [
  ["COc1nn(CCOCCN(C)C)c2ccc([N+](=O)[O-])cc12.Cl", "Non-toxic"],
  ["CN(C)CCCCCn1nc(OCc2ccccc2)c2cc([N+](=O)[O-])ccc21", "Toxic"],
  ["O=[N+]([O-])c1ccc2c(c1)c(O)nn2Cc1ccccc1CN1CCCCC1", "Non-toxic"],
  ["O=[N+]([O-])c1ccc2c(c1)c(O)nn2CCCCCN1CCCCC1", "Non-toxic"],
  ["O=[N+]([O-])c1ccc2c(c1)c(OCc1ccccc1)nn2CCOCCN1CCCCC1", "Non-toxic"],
  ["COc1nn(CCCCCN2CCCCC2)c2ccc([N+](=O)[O-])cc12.Cl", "Toxic"],
  ["CN(C)Cc1ccccc1Cn1nc(O)c2cc([N+](=O)[O-])ccc21", "Non-toxic"],
  ["CN(C)CCOCCn1nc(OCc2ccccc2)c2cc([N+](=O)[O-])ccc21", "Non-toxic"],
  ["CN(C)CCCCCn1nc(O)c2cc([N+](=O)[O-])ccc21", "Non-toxic"],
  ["O=[N+]([O-])c1ccc2c(c1)c(O)nn2CCOCCN1CCCCC1", "Non-toxic"]
]}
